Where do the numbers come from? From PubChem BioAssay AID894.

Potency: recorded values
# SYSTEM_NAME: 15-hydroxyprostaglandin dehydrogenase [NAD(+)] (Homo sapiens)
# METHOD_SUMMARY: qHTS Assay for Inhibitors of HPGD (15-Hydroxyprostaglandin Dehydrogenase); also: potency is read from the fitted curve at half-maximal effect
# CONDITION_NOTES: purified HPGD, NADH fluorescence kinetic, PGE2 substrate
In all, about 150,000 compounds went through this assay and about 6,500 (4.3%) were called active. Inconclusive results (about 12%) are left out. For the sample, actives were picked, then their nearest neighbours and some compounds at random.

Reference set, count: 8
[
  {
    "MOLECULE": "COCCCNC(=O)c1ccc2c(c1)ncn2-c1ccccc1OC",
    "SYSTEM_NAME": "15-hydroxyprostaglandin dehydrogenase [NAD(+)] (Homo sapiens)",
    "Potency": "11.2 µM (active)"
  },
  {
    "MOLECULE": "Nc1nc(SCC(=O)NNc2c(Cl)cc(Cl)cc2Cl)n[nH]1",
    "SYSTEM_NAME": "15-hydroxyprostaglandin dehydrogenase [NAD(+)] (Homo sapiens)",
    "Potency": "35.5 µM (active)"
  },
  {
    "MOLECULE": "O=C(c1cc(-c2cccc(O)c2)on1)N1CCc2ccccc2C1",
    "SYSTEM_NAME": "15-hydroxyprostaglandin dehydrogenase [NAD(+)] (Homo sapiens)",
    "Potency": "25.1 µM (active)"
  },
  {
    "MOLECULE": "CN(c1ccc(C(=O)N2CCc3ccccc3C2)cc1)S(C)(=O)=O",
    "SYSTEM_NAME": "15-hydroxyprostaglandin dehydrogenase [NAD(+)] (Homo sapiens)",
    "Potency": "14.1 µM (active)"
  },
  {
    "MOLECULE": "c1ccc(-c2nnc3n2NC(c2ccc4c(c2)OCO4)S3)cc1 (stereo unspecified)",
    "SYSTEM_NAME": "15-hydroxyprostaglandin dehydrogenase [NAD(+)] (Homo sapiens)",
    "Potency": "14.1 µM (active)"
  },
  {
    "MOLECULE": "O=C1CC(Sc2ncn[nH]2)C(=O)N1c1ccccc1 (stereo unspecified)",
    "SYSTEM_NAME": "15-hydroxyprostaglandin dehydrogenase [NAD(+)] (Homo sapiens)",
    "Potency": "12.6 µM (active)"
  },
  {
    "MOLECULE": "CC(Oc1ccc(Cl)cc1Cl)C(=O)/C=C/N(C)C (stereo unspecified)",
    "SYSTEM_NAME": "15-hydroxyprostaglandin dehydrogenase [NAD(+)] (Homo sapiens)",
    "Potency": "22.4 µM (active)"
  },
  {
    "MOLECULE": "COc1ccc(C(=O)c2c(C)oc3cc([N+](=O)[O-])c(O)c([N+](=O)[O-])c23)cc1",
    "SYSTEM_NAME": "15-hydroxyprostaglandin dehydrogenase [NAD(+)] (Homo sapiens)",
    "Potency": "14.1 µM (active)"
  }
]

Alright, here's another molecule for you.
What the record says about COc1cc(C2CC(=O)N3CN(Cc4ccccc4)CSC3=C2C#N)ccc1OCc1ccccc1 (stereo unspecified) : Potency is 10 µM (active)
